# Test system: H1N1 (A/HA-58pdm-TR)
# method: microbe, parasite or virus in culture
# Format: cell-based, oseltamivir-resistant strain
# run parameters: Influenza A virus, H1N1, MDCK
measured endpoint: IC50

Would you kindly share the measured IC50 for C/C(=C\CC[C@@H](C)[C@H]1C[C@H](O)[C@@]2(C)C3=CC[C@H]4C(C)(C)C(=O)CC[C@]4(C)C3=CC[C@]12C)C(=O)O [Compound 2, Ganoderic acid TR] ?
245 µM
